Please provide measured folding stability dG unfold for the entries that follow.
# assayText: folding stability dG unfold from trypsin proteolysis; higher = more stable
Lab book: enter the figure in kcal/mol, no units written.

Enquiry: Entry SAGGSAGGSAGMSTTPVAYKFTFTLPGGETLEREGTDVAALKEALKAEYGAVEITVTPVSSAGGSAGGSAGG [r17_508_JUSTAS] : reported folding stability dG unfold = ?
Return: 2.2

Enquiry: Moving on to the next sequence: SAGGSAGGSMLPLPIESIEVVPRRAPGGKTYYVAFIRLKADGKPLVIEFEADNPGEALEKLEASAGGSAGGS [r20_238_TrMRF]
Return: 1.14

Enquiry: Moving on to the next sequence: SAGGKKEVILVIEIDLPESEEELLEEAERLAKELAELLGKEREVEVEVIEKDGKLIIVLRINGKEIVLSAGG [r13_845_TrROS_Hall]
Return: 2.78

Enquiry: Moving on to the next sequence: SAMSVKTYSSTSVDPKTGKTYTTTTTVTPKPEPPWLVTTTTYLVDPATGTTTLLSTTTTTLDPNDPTLLSAG [r14_939_JUSTAS]
Return: 2.11

Enquiry: Moving on to the next sequence: SAGGSAGGKIDLKDLKIVKIETVKNENGETFYRVVIEVDGKKIVLTVPENMSLEELLKKLKELSSAGGSAGG [r6_232_TrROS_Hall]
Return: 3.36

Enquiry: Moving on to the next sequence: SAGGSAPDNKPKPVVREVEFWIMIPFKSAEQAKEIVEELMKFFGGLKVEILEVHPDGYAMIKITIYSAGGSA [r15_387_TrROS]
Return: 3.68

Enquiry: Moving on to the next sequence: SAALAELLLNEGYEVRIEVEVREVRPRTLPGGGTTVELDITVRIELRPPPIPPPPLDPRLLRDEDGHLRSAG [r14_569_TrMRF]
Return: 2.35

Enquiry: Moving on to the next sequence: SAGGKKKKVKKKKPVYRIKIKLKNGEEIEIEAKSKEEAEKAAKELLKKLFPEKKIDEIKIVEIEKLPPSAGG [r13_887_TrROS_Hall]
Return: 2.54

Enquiry: Moving on to the next sequence: SAGKKKVIIVKVKPEDLEKLLEAIKKLPKEKVKRIEIEVNGKLYLIEVTDKEIKIYDIETGEEKTIKLSAGG [r19_154_TrROS_Hall]
Return: 2.1

Enquiry: Moving on to the next sequence: SAGGSAGGSAMTVTITHDVPPDVSVTVTVTSNNKKIPVSTPSRAASATIPSSEVSSLEIVPSSAGGSAGGSA [r18_170_JUSTAS]
Return: -0.362

Enquiry: Moving on to the next sequence: SAGGSAGGKITITLPGAEIVSVEESEDGKTITITVRLENGELLKITLKRVNGKWYITKIELLKPSAGGSAGG [r6_718_TrROS_Hall]
Return: 3.54

Enquiry: Moving on to the next sequence: MTPTFTVTELPPDLLRVEYTDPVTGKRATFTLPVSPVGDGVRLSAEVDAEGLPEEVAAAIRDAALAALAAAS [r1_403_JUSTAS]
Return: 1.48

Enquiry: Moving on to the next sequence: SAGGSAGGSMKITKIEVEENEDGTLTVRLELEFVDPETKETYRVELEITVSKEELEKLLEALKSAGGSAGGS [r12_691_TrROS_Hall]
Return: 3.03

Enquiry: Moving on to the next sequence: SAGGMESSVTTTPDPNSDTTTTTTTVPLPDETTTTTTTTTTAPGTVTTTTTTYPPGGTPTTTTSTTASAGGS [r16_733_JUSTAS]
Return: 2.38

Enquiry: Moving on to the next sequence: SAGSSETYSFKSPEEAKKKLKEEYGVSVEELPGNRVRINLVLDNKPVVVLIDTSTNLATVVSPEVVERKSAG [r14_402_JUSTAS]
Return: -0.219

Enquiry: Moving on to the next sequence: SAGGSAKTISIIIPFKGLTPEQAIEIAKELEKLLGTKAKIESIPGKGYILVTLELPNKTSYIIIPGSAGGSA [r15_168_TrMRF]
Return: 1.81

Enquiry: Moving on to the next sequence: SAGGSAGGSAGGMITKVTVTYLPGGEVSLTITDENGTPSEKTLSLAELKKYPDIPLELDPSAGGSAGGSAGG [r7_238_JUSTAS]
Return: 0.174

Enquiry: Moving on to the next sequence: SAGGSAGGSAGWYFPIDELQKEHPNMSPETIADFFQKDGYKIEVEPVGPEPWVKIEPPEKSAGGSAGGSAGG [r11_707_TrROS]
Return: 0.658

Enquiry: Moving on to the next sequence: SAGGDPIEDIVKEIAEEHGYPIKNVEVEPVDPNTLVVEVQMPNGYRIKIEIPYDPDGDLNINVEWEPSAGGS [r8_284_TrROS]
Return: 1.13

Enquiry: Moving on to the next sequence: SAGGSAGMMKVTTTPVSADTVRVTVTVPGGPFTVTVTQNGVPLLTRTVPADATLTITLPPNATVVGSAGGSA [r15_581_JUSTAS]
Return: 1.91

Enquiry: Moving on to the next sequence: SAGGSAGGSYYMIEIEFPDTGQRITFPFKSLEEAKEFLPPGAPIREIEVQPIKPPVDPEQQNESAGGSAGGS [r12_851_TrROS]
Return: 0.809

Enquiry: Moving on to the next sequence: SAGSAEEIAKKLAEELRKAGYEVKVKVVEVEKVGDGKVVVRVEIEVTYYDKNGKPVKKERFELTIVLPSAGG [r19_418_TrROS_Hall]
Return: 2.99

Enquiry: Moving on to the next sequence: SAGKKQEVTIMIPIRGPAQAREQVEEFANDFPIKPTRVHPNPNKNHYWVMVTMKVPGAKIKIMIWIPPSAGG [r19_262_TrROS]
Return: 2.94

Enquiry: Moving on to the next sequence: SAGGSAGGSAGFYKAKLKILKTKVYSNEKGTKKKTYKPVLILEELIPPKIPKELWEKLNKSAGGSAGGSAGG [r11_318_TrMRF]
Return: 0.836

Enquiry: Moving on to the next sequence: SAGMLKVKIKIEIEKDGKKIELEKEIEAESEEELLKAAEELAKELEKKGIKIKKIEVEVEKIPEPEEEESAG [r5_660_TrROS_Hall]
Return: 2.04

Enquiry: Moving on to the next sequence: SAGGSAGGSAGGGMSLSYTVTTSTTVVPAPDGVTVLHPTTTTFPGGPTTTTTTVTVEPAGSAGGSAGGSAGG [r7_701_JUSTAS]
Return: 0.872

Enquiry: Moving on to the next sequence: SAGGSAGGKKVYEIKGLTPEQIRALVKENKGKVTIYYKDGKKEEKTIKEGDEIAPGETVYIEVESAGGSAGG [r6_303_TrROS_Hall]
Return: 0.858
